tgt: Nanoluciferase-BRD9 fusion protein (3×FLAG-NLuc-BRD9) in SYO-1 cells (Homo sapiens)
Construct: expressed in transfected cells; host or cells: SYO-1
Sequence (Q9H8M2 whole entry, the tested form may be a part): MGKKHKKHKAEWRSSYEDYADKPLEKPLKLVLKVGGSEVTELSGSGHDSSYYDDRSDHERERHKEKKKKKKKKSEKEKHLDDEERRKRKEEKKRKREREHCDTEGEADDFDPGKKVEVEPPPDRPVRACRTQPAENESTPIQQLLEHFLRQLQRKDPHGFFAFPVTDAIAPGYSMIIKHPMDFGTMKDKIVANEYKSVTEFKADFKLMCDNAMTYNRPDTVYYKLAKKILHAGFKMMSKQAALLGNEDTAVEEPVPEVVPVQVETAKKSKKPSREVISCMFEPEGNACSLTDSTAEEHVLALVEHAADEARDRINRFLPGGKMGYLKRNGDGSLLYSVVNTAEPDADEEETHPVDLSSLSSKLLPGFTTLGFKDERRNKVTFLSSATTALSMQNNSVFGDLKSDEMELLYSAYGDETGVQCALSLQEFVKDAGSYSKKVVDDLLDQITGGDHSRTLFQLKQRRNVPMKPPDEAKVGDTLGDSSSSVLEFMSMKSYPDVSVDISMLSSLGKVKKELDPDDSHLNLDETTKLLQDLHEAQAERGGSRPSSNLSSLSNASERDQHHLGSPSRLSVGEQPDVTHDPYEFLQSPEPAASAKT
procedure details: SYO1 BRD9 NanoLuc Degradation Assay
Assay type: cell-based
assay conditions: Table 6C; SYO-1 cells expressing 3×FLAG-NLuc-BRD9, 6 hours incubation, 1 μM top dose; read-out: SYO1 BRD9-NanoLuc degradation IC50
The following compounds are shown together with reported DC50 values.

compound	DC50
COc1cc(-c2cn(C)c(=O)c3cnc(N(C)C)cc23)cc(OC)c1C1CCN(c2ccc3c(c2)C(=O)N(C2CCC(=O)NC2=O)C3)CC1 (stereo not drawn)	< 10 nM
COc1cc(-c2cn(C)c(=O)c3cnc(N(C)C)cc23)cc(OC)c1CN1CCC(c2ccc3c(c2)C(=O)N(C2CCC(=O)NC2=O)C3)CC1 (stereo not drawn)	< 10 nM
COc1cc(-c2cn(C)c(=O)c3cnc(N(C)C)cc23)cc(OC)c1CN1CCC(CN2CCC3(CC2)CN(c2ccc4c(c2)C(=O)N(C2CCC(=O)NC2=O)C4)C3)C(F)(F)C1 (stereo not drawn)	< 10 nM
[2H]C([2H])([2H])n1cc(-c2cc(OC)c(CN3CC(Oc4ccc5c(c4)CN(C4CCC(=O)NC4=O)C5=O)C3)c(OC)c2)c2cc(OC)ncc2c1=O (stereo not drawn)	< 10 nM
COc1cc(-c2cn(C)c(=O)c3cnc(N(C)C)cc23)cc(OC)c1CN1CCC(N2CCN(C3CCC(=O)NC3=O)C(=O)C2)CC1 (stereo not drawn)	≥ 1000 nM
CCc1cc(-c2cn(C)c(=O)c3cnc(N4CCC4)cc23)cc(OC)c1CN1CCC2(CC1)CN(c1ccc3c(c1)C(=O)N(C1CCC(=O)NC1=O)C3)C2 (stereo not drawn)	< 10 nM
COc1cc(-c2cn(C)c(=O)c3cnc(N4CC(F)(F)C4)cc23)cc(OC)c1CN1CCN(c2ccc3c(c2)C(=O)N(C2CCC(=O)NC2=O)C3)CC1(C)C (stereo not drawn)	< 10 nM
COc1cc(-c2cn(C)c(=O)c3cnc(N(C)C)cc23)cc(OC)c1CN1CCC(N2CCN(C3CCC(=O)NC3=O)C(=O)C2)C1 (stereo not drawn)	100 to 1000 nM
COc1cc(-c2cn(C)c(=O)c3cnc(N(C)C)cc23)cc(OC)c1CN1CC(N(C)c2ccc3c(c2)C(=O)N(C2CCC(=O)NC2=O)C3=O)C1 (stereo not drawn)	< 10 nM
[2H]C([2H])([2H])Oc1cc2c(-c3cc(OC)c(CN4CCN(CCC5CCN(c6ccc7c(c6)C(=O)N(C6CCC(=O)NC6=O)C7)CC5)CC4)c(OC)c3)cn(C)c(=O)c2cn1 (stereo not drawn)	< 10 nM
COc1cc(-c2nn(C)c(=O)c3cnc(N4CCC4)cc23)cc(OC)c1CN1CCC(CN2CCC3(CC2)CC(Oc2ccc4c(c2)C(=O)N(C2CCC(=O)NC2=O)C4)C3)CC1 (stereo not drawn) [Compound D191]	100 to 1000 nM
COc1cc(-c2cn(C)c(=O)c3cnc(C4CC4)cc23)cc(OC)c1CN1CCC(CCN2CCN(c3ccc4c(c3)C(=O)N(C3CCC(=O)NC3=O)C4)CC2)CC1 (stereo not drawn)	< 10 nM
COc1cc(-c2cn(C)c(=O)c3cnc(N(C)C)cc23)cc(OC)c1CN1CC2(CCC(N3CCN(C4CCC(=O)NC4=O)C(=O)C3)CC2)C1 (stereo not drawn)	10 to 100 nM
COc1cc(-c2cn(C)c(=O)c3cnc(C4CC4)cc23)cc(OC)c1CN1CCN(CCC2CCN(c3ccc4c(c3)C(=O)N(C3CCC(=O)NC3=O)C4=O)CC2)CC1 (stereo not drawn)	< 10 nM
[2H]C([2H])([2H])n1cc(-c2cc(OC)c(CN3[C@H](C)CN(c4ccc5c(c4)C(=O)N(C4CCC(=O)NC4=O)C5)C[C@H]3C)c(OC)c2)c2cc(OC)ncc2c1=O (stereo partly drawn)	< 10 nM
[2H]C([2H])([2H])n1cc(-c2cc(OC)c(CN3CC(Oc4ccc5c(c4)C(=O)N(C4CCC(=O)NC4=O)C5)C3)c(OC)c2)c2cc(OC)ncc2c1=O (stereo not drawn)	< 10 nM
COc1cc(-c2cn(C)c(=O)c3cnc(N4CCC4)cc23)cc(OC)c1CN1[C@H](C)CN(CCC2CCN(c3ccc4c(c3)C(=O)N(C3CCC(=O)NC3=O)C4=O)CC2)C[C@H]1C (stereo partly drawn)	< 10 nM
[2H]C([2H])([2H])n1cc(-c2cc(OC)c(CN3CCN(CCC4CCN(c5ccc6c(c5)CN(C5CCC(=O)NC5=O)C6=O)CC4)CC3)c(OC)c2)c2cc(OC)ncc2c1=O (stereo not drawn)	< 10 nM
COc1cc(-c2cn(C)c(=O)c3cnc(N4CCC4)nc23)cc(OC)c1CN1CCC(CN2CCC3(CC2)CC(Oc2ccc4c(c2)C(=O)N(C2CCC(=O)NC2=O)C4)C3)CC1 (stereo not drawn)	< 10 nM
COc1cc(-c2cn(C)c(=O)c3cnc(N4CCC4)cc23)cc(OC)c1CN1CCC(CN2CCC3(CC2)CC(Oc2ccc4c(c2)C(=O)N(C2CCC(=O)NC2=O)C4)C3)CC1 (stereo not drawn)	< 10 nM
COc1cc(-c2cn(C)c(=O)c3cnc(N4CCC4)cc23)cc(OC)c1CN1CCC(c2ccc3c(c2)C(=O)N(C2CCC(=O)NC2=O)C3)CC1 (stereo not drawn)	< 10 nM
